tested on: human alpha 7-wt nAChR (Homo sapiens, UniProt P36544)
Construct: expressed in transfected cells
Sequence (P36544 23-502): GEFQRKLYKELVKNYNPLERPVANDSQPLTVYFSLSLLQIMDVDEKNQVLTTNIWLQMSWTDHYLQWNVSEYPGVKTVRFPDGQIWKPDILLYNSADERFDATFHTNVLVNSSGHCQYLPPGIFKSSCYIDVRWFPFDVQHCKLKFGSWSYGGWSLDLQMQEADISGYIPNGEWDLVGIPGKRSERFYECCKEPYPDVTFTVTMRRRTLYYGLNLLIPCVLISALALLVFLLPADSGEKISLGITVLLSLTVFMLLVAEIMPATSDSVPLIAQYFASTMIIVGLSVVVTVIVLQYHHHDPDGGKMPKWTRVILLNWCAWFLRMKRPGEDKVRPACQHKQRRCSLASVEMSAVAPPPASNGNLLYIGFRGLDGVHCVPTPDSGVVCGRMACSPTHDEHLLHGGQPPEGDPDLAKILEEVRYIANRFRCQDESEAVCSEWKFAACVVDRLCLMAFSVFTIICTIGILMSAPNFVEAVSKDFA
test description: Ca2+ flux imaging (FDSS) (Protocol B)
Type: cell-based
conditions used: efficacy of 100 μM choline defined as 100% in the absence of a PAM; read-out: a7-PAM-G_[33]_Eff_Curve_FI % Efficacy
recorded endpoint: Emax (%)

[
  {
    "compound": "Cc1cc(-c2sc(N3C[C@@H](C)O[C@@H](C)C3)nc2CNC(=O)C(C)C)cc(C)n1 [Compound 40]",
    "recorded endpoint": "Emax",
    "test value": 965
  },
  {
    "compound": "Cc1cc(-c2sc(N3C[C@@H](C)O[C@@H](C)C3)nc2CNC(=O)c2cc(C)on2)ccn1 [Compound 87]",
    "recorded endpoint": "Emax",
    "test value": 646
  },
  {
    "compound": "Cc1cc(-c2sc(N3C[C@@H](C)O[C@@H](C)C3)nc2CNC(=O)C(C)(C)C)cc(C)n1 [Compound 47]",
    "recorded endpoint": "Emax",
    "test value": 247
  },
  {
    "compound": "Cc1cc(-c2sc(N3C[C@@H](C)O[C@@H](C)C3)nc2CNC(=O)C2CCC2)c(C)cn1 [Compound 95]",
    "recorded endpoint": "Emax",
    "test value": 299
  }
]

P = Cc1cc(-c2sc(N3C[C@@H](C)O[C@@H](C)C3)nc2CNC(=O)c2ccccc2F)cc(C)n1 [Compound 6]
Q = Cc1cc(-c2sc(N3C[C@@H](C)O[C@@H](C)C3)nc2CNC(=O)c2ccc(F)c(C(F)(F)F)c2)cc(C)n1 [Compound 33]
Qu. Given the listed records, identify the one among P and Q with higher Emax. Selection: enter the item's label.
Ans. Q

I = Cc1cc(-c2sc(N3C[C@@H](C)O[C@@H](C)C3)nc2CNC(=O)c2ccc(Cl)cc2C)cc(C)n1 [Compound 22]
II = Cc1cc(-c2sc(N3C[C@@H](C)O[C@@H](C)C3)nc2CNC(=O)CC(F)(F)F)cc(C)n1 [Compound 168]
Qu. // compare measured Emax between I and II ; output the lower one Selection: enter the item's label.
Ans. I
(I: 484%, II: 924%)

P = Cc1cc(-c2sc(N3C[C@@H](C)O[C@@H](C)C3)nc2CNC(=O)c2cc(F)cc(F)c2)cc(C)n1 [Compound 15]
Q = Cc1cc(-c2sc(N3C[C@@H](C)O[C@@H](C)C3)nc2CNC(=O)c2cc(C)on2)cc(C2CC2)n1 [Compound 105]
R = Cc1cc(-c2sc(N3C[C@@H](C)O[C@@H](C)C3)nc2CNC(=O)C(F)(F)F)cc(C)n1 [Compound 177]
Qu. Hey, quick one: sort these by Emax, largest value first please. Could you list the labels in the order requested?
Ans. Q, P, R
(Q: 895%, P: 411%, R: 26%)

I = Cc1cc(-c2sc(N3C[C@@H](C)O[C@@H](C)C3)nc2CNC(=O)c2cnccn2)cc(C)n1 [Compound 138]
II = Cc1cc(-c2sc(N3C[C@@H](C)O[C@@H](C)C3)nc2CNC(=O)c2nn(C)cc2C)cc(C)n1 [Compound 172]
Qu. // compare measured Emax between I and II ; output the lower one Selection: enter the item's label.
Ans. II
